tested on: Hs-578T; experiment: Antiproliferative activity against human Hs-578T cells assessed as reduction in cell viability incubated for 48 hrs by MTT assay; format: functional, cell-based
outcome.measure: pIC50
Please report pIC50 as the negative decimal logarithm of the molar concentration, giving only the number.

# value of pIC50, Hs-578T, item CC[C@H](C)[C@H]1C(=O)O[C@H](C(C)C)C(=O)N(C)[C@@H]([C@@H](C)CC)C(=O)O[C@H](C(C)C)C(=O)N(C)[C@@H]([C@@H](C)CC)C(=O)OCC(=O)N1C = 4.80

Case CC[C@H](C)[C@H]1C(=O)O[C@H](C(C)C)C(=O)N(C)[C@@H]([C@@H](C)CC)C(=O)O[C@H](C(C)C)C(=O)N(C)[C@@H]([C@@H](C)CC)C(=O)O[C@H](Cc2ccc(C)cc2)C(=O)N1C , Hs-578T, pIC50 recorded as 5.08

// assay Hs-578T, entry CC[C@H](C)[C@H]1C(=O)O[C@H](C(C)C)C(=O)N(C)[C@@H](C)C(=O)O[C@H](C(C)C)C(=O)N(C)[C@@H]([C@@H](C)CC)C(=O)O[C@H](C(C)C)C(=O)N1C , pIC50 value = 4.79

Reference source: ChEMBL document CHEMBL5390316
